Would you mind telling me the reported zone of inhibition at 12 µg/disc of each entry?
Tested on: Micrococcus luteus
Assay: Antibacterial activity against Micrococcus luteus at 12 ug/well after 24 hrs by agar well diffusion method
Format: functional
Conditions: read-out: DIZ
# number only, unit mm dropped from output

INPUT: I am curious: what zone of inhibition at 12 µg/disc value has been reported for COc1cccc(C2C(C(=O)c3c[nH]c4ccccc34)=C(N)Oc3ccc4ccccc4c32)c1 (configuration not stated) ?
OUTPUT: 35

INPUT: Sample NC1=C(C(=O)c2c[nH]c3ccccc23)C(c2ccc(Cl)cc2)c2c(ccc3ccccc23)O1 (configuration not stated) — what was its zone of inhibition at 12 µg/disc?
OUTPUT: 8

INPUT: Sample NC1=C(C(=O)c2c[nH]c3ccc(Br)cc23)C(c2ccc(C3C(C(=O)c4c[nH]c5ccc(Br)cc45)=C(N)Oc4ccc5ccccc5c43)cc2)c2c(ccc3ccccc23)O1 (configuration not stated) — what was its zone of inhibition at 12 µg/disc?
OUTPUT: 30

INPUT: Requested field: zone of inhibition at 12 µg/disc. Item: NC1=C(C(=O)c2c[nH]c3ccc(Br)cc23)C(c2cccnc2)c2c(ccc3ccccc23)O1 (configuration not stated)
OUTPUT: 11

INPUT: Which zone of inhibition at 12 µg/disc value belongs to NC1=C(C(=O)c2c[nH]c3ccccc23)C(c2ccc(C3C(C(=O)c4c[nH]c5ccccc45)=C(N)Oc4ccc5ccccc5c43)cc2)c2c(ccc3ccccc23)O1 (configuration not stated) ?
OUTPUT: 7

INPUT: Any idea what its zone of inhibition at 12 µg/disc is? The molecule is NC1=C(C(=O)c2c[nH]c3ccccc23)C(c2ccc(Br)cc2)c2c(ccc3ccccc23)O1 (configuration not stated)
OUTPUT: 10

INPUT: Which measured zone of inhibition at 12 µg/disc value corresponds to NC1=C(C(=O)c2c[nH]c3ccc(Br)cc23)C(c2ccc(Cl)cc2)c2c(ccc3ccccc23)O1 (configuration not stated) ?
OUTPUT: 45

* * *

Tested on: Micrococcus luteus
Test: Antibacterial activity against Micrococcus luteus at 12 ug/well after 24 hrs by agar well diffusion method
Format: functional
Conditions: read-out: DIZ
Can you tell me zone of inhibition at 12 µg/disc for the items I'm about to list?
Hi! Could you send only the number? It should be in mm, unit omitted.

INPUT: Name the recorded zone of inhibition at 12 µg/disc for `CN(C)[C@@H]1C(O)=C(C(N)=O)C(=O)[C@@]2(O)C(O)=C3C(=O)c4c(O)cccc4[C@@](C)(O)[C@H]3C[C@@H]12` .
OUTPUT: 16

INPUT: Return reported zone of inhibition at 12 µg/disc; argument: `CC[C@H]1OC(=O)[C@H](C)[C@@H](O[C@H]2C[C@@](C)(OC)[C@@H](O)[C@H](C)O2)[C@H](C)[C@@H](O[C@@H]2O[C@H](C)C[C@H](N(C)C)[C@H]2O)[C@](C)(O)C[C@@H](C)C(=O)[C@H](C)[C@@H](O)[C@]1(C)O`
OUTPUT: 10

INPUT: Could you tell me which zone of inhibition at 12 µg/disc is on file for NC1=C(C(=O)c2c[nH]c3ccc(Br)cc23)C(c2ccc(Cl)cc2Cl)c2c(ccc3ccccc23)O1 (stereo unspecified) ?
OUTPUT: 30

INPUT: I have this compound here, Cc1[nH]c2ccccc2c1C(=O)C1=C(N)Oc2ccc3ccccc3c2C1c1ccc(Cl)cc1Cl (stereo unspecified) , and I need its recorded zone of inhibition at 12 µg/disc.
OUTPUT: 50

INPUT: Quick check: zone of inhibition at 12 µg/disc of NC1=C(C(=O)c2c[nH]c3ccccc23)C(c2ccc(F)cc2)c2c(ccc3ccccc23)O1 (stereo unspecified) ?
OUTPUT: 30

INPUT: Query: zone of inhibition at 12 µg/disc; subject: NC1=C(C(=O)c2c[nH]c3ccccc23)C(c2cccc([N+](=O)[O-])c2)c2c(ccc3ccccc23)O1 (stereo unspecified)
OUTPUT: 29

The reported numbers originate from ChEMBL document CHEMBL2069266.
